target: human plasma-derived Factor IXa (human, UniProt P00740 47-191; P00740 227-461); assay: cell-based or functional assay
Sequence (P00740 47-191, chain 1 of 2): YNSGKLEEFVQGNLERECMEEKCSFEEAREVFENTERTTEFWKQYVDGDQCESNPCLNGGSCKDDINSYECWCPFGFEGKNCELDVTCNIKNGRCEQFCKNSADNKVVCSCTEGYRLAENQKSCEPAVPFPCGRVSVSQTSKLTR
Sequence (P00740 227-461, chain 2 of 2): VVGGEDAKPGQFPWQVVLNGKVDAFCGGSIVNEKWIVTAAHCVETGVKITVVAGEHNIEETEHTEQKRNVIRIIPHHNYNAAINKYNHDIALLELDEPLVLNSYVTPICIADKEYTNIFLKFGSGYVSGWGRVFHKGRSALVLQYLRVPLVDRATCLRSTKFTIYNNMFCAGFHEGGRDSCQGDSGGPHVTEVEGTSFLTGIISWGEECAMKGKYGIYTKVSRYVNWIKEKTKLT
MEASURED PROPERTY: Stimulation Index, FXa generation assay, 800 nM OA antibody (fold)
One number for each entry, in fold.

BINDER	OBSERVED MEASUREMENT
one-armed (OA) mAb11-1268 (antibody, V domains shown) VH: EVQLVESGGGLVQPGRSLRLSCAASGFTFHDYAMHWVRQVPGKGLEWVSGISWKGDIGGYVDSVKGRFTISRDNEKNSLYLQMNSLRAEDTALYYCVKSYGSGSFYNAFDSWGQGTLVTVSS VL: DIQMTQSPSTLSASVGDRVTITCRASQSISSWLAWYQQKPGKAPKFLIYKASRLDRGTPKRFSGSGSGTEFSLTISSLQPDDFATYYCLEYSSYIRTFGQGTKVEIK	1800

API: the following record is the query input.
QUERY: What Stimulation Index, FXa generation assay, 800 nM OA antibody value was documented for this binder, one-armed (OA) mAb11-1358 (antibody, V domains shown) VH: EVQLVESGGGLVQPGRSLKLSCAASGFTFDDYAMHWVRQVPGKGLEWVSGISWRGDIGGYVDSVKGRFTISRDNAKNSLYLQLNSLRAEDTALYYCVKSYGSGSFYNAFDSWGQGTLVTVSS VL: DIQMTQSPSTLSASAGDRVTITCRASQSISSWLAWYQQKPGKAPKFLIYKASKLDRGTPSRFSGSGSGTEFSLTISSLQPDDFATYYCLEYSSYIRTFGQGTKVEIK ?
RESULT: 2830
